These measurements were taken from patent US20230355626A1.

test system: recombinant NL4-3 virus; assay: HIV cell culture assay (antiviral activity, luciferase readout in infected MT-2 cells); type: cell-based; settings: Human immunodeficiency virus 1, NL43, MT2
ASSAY_ENDPOINT: pEC50
When answering, recall that pEC50 equals minus log10 of the concentration in mol/L, and write that number alone.

Answered cases to consult:
>>> observed_result("COC(C)(C)CCOc1ccc2c(=O)n(-c3ccc(Cl)c4c(NS(C)(=O)=O)nn(C)c34)c([C@H](Cc3cc(F)cc(F)c3)NC(=O)Cn3nc(C(F)F)c4c3C(F)(F)[C@@H]3C[C@H]43)nc2n1 (atropisomer, axis not shown; (P)) [Example 15]")
10.72
>>> observed_result("Cn1nc(NS(C)(=O)=O)c2c(Cl)ccc(-n3c([C@H](Cc4cc(F)cc(F)c4)NC(=O)Cn4nc(C(F)F)c5c4C(F)(F)[C@@H]4C[C@H]54)nc4nc(OCCC(C)(C)c5ccccc5)ccc4c3=O)c21 (atropisomer, axis not shown; (P)) [Example 5]")
9.37

For the molecule Cc1ccnc(COc2ccc3c(=O)n(-c4ccc(Cl)c5c(NS(C)(=O)=O)nn(C)c45)c([C@H](Cc4cc(F)cc(F)c4)NC(=O)Cn4nc(C(F)F)c5c4C(F)(F)[C@@H]4C[C@H]54)nc3n2)n1 (atropisomer, axis not shown; (P)) [Example 7] , what pEC50 is on record?
10.23

For the molecule Cn1nc(NS(C)(=O)=O)c2c(Cl)ccc(-n3c([C@H](Cc4cc(F)cc(F)c4)NC(=O)Cn4nc(C(F)F)c5c4C(F)(F)[C@@H]4C[C@H]54)nc4nc(OCc5nc(C(F)(F)F)cs5)ccc4c3=O)c21 (atropisomer, axis not shown; (P)) [Example 23] , what pEC50 is on record?
10.00

###

test system: recombinant NL4-3 virus; assay: HIV cell culture assay (antiviral activity, luciferase readout in infected MT-2 cells); format: cell-based; settings: Human immunodeficiency virus 1, NL43, MT2
ASSAY_ENDPOINT: pEC50
When answering, recall that pEC50 equals minus log10 of the concentration in mol/L, and write that number alone.

Answered cases to consult:
>>> observed_result("Cn1nc(NS(C)(=O)=O)c2c(Cl)ccc(-n3c([C@H](Cc4cc(F)cc(F)c4)NC(=O)Cn4nc(C(F)F)c5c4C(F)(F)[C@@H]4C[C@H]54)nc4nc(OCC(F)(F)C(F)(F)C(F)(F)F)ccc4c3=O)c21 (atropisomer, axis not shown; (P)) [Example 39]")
9.91
>>> observed_result("Cn1nc(NS(C)(=O)=O)c2c(Cl)ccc(-n3c([C@H](Cc4cc(F)cc(F)c4)NC(=O)Cn4nc(C(F)F)c5c4C(F)(F)[C@@H]4C[C@H]54)nc4nc(OCCC5CC5(F)F)ccc4c3=O)c21 (stereo partly drawn) [Example 38]")
10.43
>>> observed_result("CN(CCCOc1ccc2c(=O)n(-c3ccc(Cl)c4c(NS(C)(=O)=O)nn(C)c34)c([C@H](Cc3cc(F)cc(F)c3)NC(=O)Cn3nc(C(F)F)c4c3C(F)(F)[C@@H]3C[C@H]43)nc2n1)CC(F)(F)F (atropisomer, axis not shown; (P)) [Example 11]")
10.57
>>> observed_result("Cn1nc(NS(C)(=O)=O)c2c(Cl)ccc(-n3c([C@H](Cc4cc(F)cc(F)c4)NC(=O)Cn4nc(C(F)F)c5c4C(F)(F)[C@@H]4C[C@H]54)nc4nc(OCC5(C(F)(F)F)CC5)ccc4c3=O)c21 (atropisomer, axis not shown; (P)) [Example 21]")
10.34
>>> observed_result("Cn1nc(NS(C)(=O)=O)c2c(Cl)ccc(-n3c([C@H](Cc4cc(F)cc(F)c4)NC(=O)Cn4nc(C(F)F)c5c4C(F)(F)[C@@H]4C[C@H]54)nc4nc(OCC(F)(F)C(F)(F)C(F)(F)C(F)(F)F)ccc4c3=O)c21 (atropisomer, axis not shown; (P)) [Example 40]")
9.51

For the compound Cn1nc(NS(C)(=O)=O)c2c(Cl)ccc(-n3c([C@H](Cc4cc(F)cc(F)c4)NC(=O)Cn4nc(C(F)F)c5c4C(F)(F)[C@@H]4C[C@H]54)nc4nc(OCC(F)(F)C(F)F)ccc4c3=O)c21 (atropisomer, axis not shown; (P)) [Example 27] , what pEC50 is on record?
10.66

For the compound Cn1nc(NS(C)(=O)=O)c2c(Cl)ccc(-n3c([C@H](Cc4cc(F)cc(F)c4)NC(=O)Cn4nc(C(F)F)c5c4C(F)(F)[C@@H]4C[C@H]54)nc4nc(OCCOC(F)F)ccc4c3=O)c21 (atropisomer, axis not shown; (P)) [Example 29] , what pEC50 is on record?
10.48

For the compound Cn1nc(NS(C)(=O)=O)c2c(Cl)ccc(-n3c([C@H](Cc4cc(F)cc(F)c4)NC(=O)Cn4nc(C(F)F)c5c4C(F)(F)[C@@H]4C[C@H]54)nc4nc(OCc5nccn5C(F)F)ccc4c3=O)c21 (atropisomer, axis not shown; (P)) [Example 28] , what pEC50 is on record?
9.06

For the compound Cc1cc(C)nc(COc2ccc3c(=O)n(-c4ccc(Cl)c5c(NS(C)(=O)=O)nn(C)c45)c([C@H](Cc4cc(F)cc(F)c4)NC(=O)Cn4nc(C(F)F)c5c4C(F)(F)[C@@H]4C[C@H]54)nc3n2)n1 (atropisomer, axis not shown; (P)) [Example 6] , what pEC50 is on record?
10.44

For the compound Cn1nc(NS(C)(=O)=O)c2c(Cl)ccc(-n3c([C@H](Cc4cc(F)cc(F)c4)NC(=O)Cn4nc(C(F)F)c5c4C(F)(F)[C@@H]4C[C@H]54)nc4nc(OCCOCC(F)(F)C(F)(F)F)ccc4c3=O)c21 (atropisomer, axis not shown; (P)) [Example 20] , what pEC50 is on record?
10.35

For the compound Cn1nc(NS(C)(=O)=O)c2c(Cl)ccc(-n3c([C@H](Cc4cc(F)cc(F)c4)NC(=O)Cn4nc(C(F)F)c5c4C(F)(F)[C@@H]4C[C@H]54)nc4nc(OC5CC(F)(F)C5)ccc4c3=O)c21 (atropisomer, axis not shown; (P)) [Example 30] , what pEC50 is on record?
10.51

For the compound Cn1nc(NS(C)(=O)=O)c2c(Cl)ccc(-n3c([C@H](Cc4cc(F)cc(F)c4)NC(=O)Cn4nc(C(F)F)c5c4C(F)(F)[C@@H]4C[C@H]54)nc4nc(Oc5ccccc5F)ccc4c3=O)c21 (atropisomer, axis not shown; (P)) [Example 37] , what pEC50 is on record?
10.09
